melting point values by entry

Challenge: I am curious: what melting point value has been reported for CN(C)CCn1ccc2cc(NS(=O)(=O)c3ccc(Cl)s3)ccc21 ?
Response given: 145 to 147 °C

Challenge: I am curious: what melting point value has been reported for CCN(CC)CCc1c[nH]c2ccc(NS(=O)(=O)c3sc4ccc(Cl)cc4c3C)cc12 [Example 1c] ?
Response given: 170 to 173 °C

---

melting point values by entry

| compound | result |
| --- | --- |
| O=C(CN1CCC(N2C(=O)OCc3ccccc32)CC1)Nc1cccc2c1-c1ccccc1C2O (centres unmarked) | 209 to 210 °C |
| CN(C)CCn1ccc2cc(NS(=O)(=O)c3cccc([N+](=O)[O-])c3)ccc21 [Example 14e] | 138 to 140 °C |
| CC(C)N(c1ccccc1)c1ccc(NC(=O)CN2CCC(N3C(=O)OCc4ccccc43)CC2)cc1.Cl | 171 to 173 °C |
| CN(C)CCc1c[nH]c2ccc(NS(=O)(=O)c3ccc(Oc4ccccc4)cc3)cc12 | 152 to 154 °C |

Challenge: I am curious: what melting point value has been reported for CCN(CC)CCn1ccc2cc(NS(=O)(=O)c3ccc4ccccc4c3)ccc21 ?
Response given: 97 to 104 °C

---

readoutKind: melting point

Challenge: I am curious: what melting point value has been reported for Cc1cccc2c1N(C1CCN(S(=O)(=O)c3cccc(Cl)c3Cl)CC1)C(=O)OC2 ?
Response given: 184 to 185 °C

Challenge: I am curious: what melting point value has been reported for CN1CC=C(c2cn(S(=O)(=O)C3CCCCC3)c3ccc([N+](=O)[O-])cc23)CC1 [Example 1h] ?
Response given: 155 to 160 °C

---

Where a name gives a salt, the structure may show the parent alone.
As an illustration, consider measured Ki for compounds on Neuropeptide Y2 receptor (Rattus norvegicus, UniProt Q9ERC0).
Sequence (Q9ERC0 1-381): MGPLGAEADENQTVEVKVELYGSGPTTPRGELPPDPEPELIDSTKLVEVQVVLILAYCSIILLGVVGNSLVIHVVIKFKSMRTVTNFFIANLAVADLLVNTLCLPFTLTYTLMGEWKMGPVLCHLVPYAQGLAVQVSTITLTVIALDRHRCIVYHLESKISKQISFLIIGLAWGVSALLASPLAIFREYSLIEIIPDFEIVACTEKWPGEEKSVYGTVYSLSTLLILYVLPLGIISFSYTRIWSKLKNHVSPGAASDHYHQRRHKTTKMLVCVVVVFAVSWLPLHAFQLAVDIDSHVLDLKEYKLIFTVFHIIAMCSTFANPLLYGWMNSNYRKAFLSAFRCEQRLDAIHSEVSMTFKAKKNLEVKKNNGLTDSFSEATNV

| compound | tgt | Ki |
| --- | --- | --- |
| Cl.O=C(CN1CCC(N2C(=O)OCc3ccccc32)CC1)Nc1ccc2c(c1)-c1ccccc1C2=O [Example 3a, hydrochloride] | Neuropeptide Y2 receptor (Rattus norvegicus, UniProt Q9ERC0) | > 1000 nM |
| O=C(CN1CCC(N2C(=O)OCc3ccccc32)CC1)Nc1ccc2c(c1)CCCC2=O [Example 6a, hydrochloride] | Neuropeptide Y2 receptor (Rattus norvegicus, UniProt Q9ERC0) | > 1000 nM |

The record that follows has no Ki shown yet.
Challenge: Ki of Cc1ccc2c(c1)COC(=O)N2C1CCN(CC(=O)Nc2ccc3c(c2)-c2ccccc2C3=O)CC1.Cl [Example 20a, hydrochloride] on Neuropeptide Y2 receptor (Rattus norvegicus, UniProt Q9ERC0)?
Response given: > 1000 nM

---

readoutKind: melting point

Challenge: I am curious: what melting point value has been reported for CN(C)CCc1c[nH]c2ccc(NS(=O)(=O)c3ccc4c(Cl)cccc4c3)cc12 ?
Response given: 230 to 240 °C (dec.)

Challenge: I am curious: what melting point value has been reported for Cc1ccc2c(c1)COC(=O)N2C1CCN(CC(=O)Nc2ccccc2Cl)CC1 ?
Response given: 146 to 148 °C

Challenge: I am curious: what melting point value has been reported for CN(C)CCn1ccc2c(NS(=O)(=O)c3c(Cl)nc4sccn34)cccc21 [Example 8d] ?
Response given: 95 to 100 °C

Challenge: I am curious: what melting point value has been reported for Cc1c(S(=O)(=O)Nc2ccc3[nH]cc(CN(C)C)c3c2)sc2ccc(Cl)cc12 [Example 30c] ?
Response given: 148 to 152 °C

Challenge: I am curious: what melting point value has been reported for O=S(=O)(Nc1ccc2[nH]cc(CCN3CCOCC3)c2c1)c1ccc2ccccc2c1 ?
Response given: 85 to 90 °C

Challenge: I am curious: what melting point value has been reported for CN(C)CCn1ccc2c(NS(=O)(=O)CCc3cccc4ccccc34)cccc21 [Example 5d] ?
Response given: 47 to 54 °C
